Provide the recorded pKa for the entries that follow.
Protocol summary: Dissociation constant, pKa of the compound with quinoline heteroaromatic N atom by pH titration method
Type: physicochemical
One number for each entry.

Field: example entries. Status: answers known.
# Smiles structure, pKa
records = [
    ("CN(Cc1ccc(N(C)C)cc1)Cc1ccccc1CNc1ccnc2cc(Cl)ccc12", 7.4),
    ("CN(Cc1ccc(N(C)C)cc1)Cc1cccc(CNc2ccnc3cc(Cl)ccc23)c1", 7.36),
    ("CN(Cc1ccc(Cl)cc1)Cc1ccccc1CNc1ccnc2cc(Cl)ccc12", 7.44),
    ("COc1ccc(CN(C)Cc2ccc(CNc3ccnc4cc(Cl)ccc34)cc2)cc1", 7.44),
    ("CN(Cc1ccc(Cl)cc1)Cc1ccc(CNc2ccnc3cc(Cl)ccc23)cc1", 7.44),
    ("COc1ccc(CN(C)Cc2ccccc2CNc2ccnc3cc(Cl)ccc23)cc1", 7.47),
    ("CN(Cc1ccccc1)Cc1ccccc1CNc1ccnc2cc(Cl)ccc12", 7.57),
    ("CN(Cc1ccc(CNc2ccnc3cc(Cl)ccc23)cc1)Cc1ccc(N(C)C)cc1", 7.33),
    ("COc1ccc(CN(C)Cc2cccc(CNc3ccnc4cc(Cl)ccc34)c2)cc1", 7.38),
    ("CN(Cc1ccc(Cl)cc1)Cc1cccc(CNc2ccnc3cc(Cl)ccc23)c1", 7.55),
]

Below are some molecules; for each one, tell me its pKa.
1. CN(Cc1ccccc1)Cc1ccc(CNc2ccnc3cc(Cl)ccc23)cc1
2. CN(Cc1ccccc1)Cc1cccc(CNc2ccnc3cc(Cl)ccc23)c1

[7.56, 7.63]
